Tgt: neurokinin-1 (NK-1) receptor (Homo sapiens, UniProt P25103)
Construct: endogenously expresses the neurokinin-1 (NK-1) receptor; endogenous in cells
Sequence (P25103 whole entry): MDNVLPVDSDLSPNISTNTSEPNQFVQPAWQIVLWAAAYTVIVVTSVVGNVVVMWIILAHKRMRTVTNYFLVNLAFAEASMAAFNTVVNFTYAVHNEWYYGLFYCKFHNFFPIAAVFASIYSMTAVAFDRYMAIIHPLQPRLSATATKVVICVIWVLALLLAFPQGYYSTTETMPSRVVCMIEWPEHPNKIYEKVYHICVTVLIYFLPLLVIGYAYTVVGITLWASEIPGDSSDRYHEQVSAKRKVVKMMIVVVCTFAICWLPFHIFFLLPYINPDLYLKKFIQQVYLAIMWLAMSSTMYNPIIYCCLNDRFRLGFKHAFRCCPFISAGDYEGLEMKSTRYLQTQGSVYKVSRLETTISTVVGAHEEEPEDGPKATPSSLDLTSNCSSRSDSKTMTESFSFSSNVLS
Assay info: NK-1 Binding assay ([125I] Substance P competition, U373 cell membranes)
Protocol conditions: Bolton Hunter labeled [125I] Substance P, 30 min at 20° C.
Protocol: NK-1 Binding assay. […] On the day of an experiment the membrane preparation was thawed, homogenized and diluted with NK-1 binding assay buffer to the appropriate concentration. […] The amount of radioligand bound in the presence and absence of competitor was analyzed by plotting (−)log drug concentration versus the amount of radioligand specifically bound. […]
Readout: IC50

Consider the reported IC50 for these compounds:
CNCC(O)(COCc1cc(C(F)(F)F)cc(C(F)(F)F)c1)c1ccccc1 (stereo not shown) ... 1 to 100 nM
Cc1ccc(C(O)(CCN)COCc2cc(C(F)(F)F)cc(C(F)(F)F)c2)c(C)c1 (stereo not shown) ... 1 to 100 nM
NCCC(O)(COCc1cc(Cl)cc(Cl)c1)c1ccccc1 (stereo not shown) ... 1 to 100 nM
NCCC(O)(COCc1ccc(OC(F)(F)F)cc1)c1ccccc1 (stereo not shown) ... > 300 nM
NCCC(O)(COCc1cc(F)cc(C(F)(F)F)c1)c1ccccc1 (stereo not shown) ... 1 to 100 nM

Inquiry: Recorded IC50 of NCCC(O)(COCc1ccccc1C(F)(F)F)c1ccccc1 (stereo not shown) , please.
Reply text: > 300 nM

Inquiry: Which IC50 is listed for NCCC(O)(COCc1cc(C(F)(F)F)cc(C(F)(F)F)c1)c1cc(F)cc(Cl)c1 (stereo not shown) ?
Reply text: 1 to 100 nM

----------
pIC50 values for the compounds below.
Tgt: neurokinin-1 (NK-1) receptor (Homo sapiens)
Construct: endogenously expresses the neurokinin-1 (NK-1) receptor; endogenous in cells; host or cells: U373 human glioblastoma-astrocytoma cells (membranes)
Assay info: NK-1 Binding assay ([125I] Substance P competition, U373 cell membranes)
Protocol conditions: Bolton Hunter labeled [125I] Substance P, 30 min at 20° C.
pIC50: −log10 of the molar value.

CC(CN)(COCc1cc(C(F)(F)F)cc(C(F)(F)F)c1)c1ccccc1 (stereo not drawn) ... 6.52 to 7.00
NCCC(O)(COCc1cccc(Br)c1)c1ccccc1 (stereo not drawn) ... < 6.52

Attention now shifts to the item below.
Inquiry: pIC50 lookup needed for NCCC(O)(COCc1cc(C(F)(F)F)cc(C(F)(F)F)c1)c1cccs1 (stereo not drawn) , thanks.
Reply text: 7.00 to 9.00

Just for reference, patent US7179926B2 is where these values come from.
